- test-description: yeast display, Sf9 membrane polyspecificity reagent, FACS + sequencing; frameworks hold sequencing errors
recorded-metric: polyreactivity (PSR sort gate)

Below are worked cases with known answers.
>>> observed_result("QVQLVESGGGLVQPGGSLRLSCSASGRIFDNYAMGWYRQAPGKEREFVARITSSGGSTYYADSVKGRFTISRDYAKNTVYLQMYSLKPEDTAVYYCAKRGWSSYCRYDSWGQGTQVTVSS")
"high polyreactivity"
>>> observed_result("QVQLVESGGGLVQAGGSLRLSCAASGFTFWYYAMGWYRQAPGKERELVAAITRGGSTNYADSVKGRFTISRDNAKNTVYLQMNSLKPEDTAVYYCAKRQGYPTYRRYDYWGQGTQVTVSS")
"high polyreactivity"
>>> observed_result("QVQHEESGRALVQAGGSLRLSCPPSGTTGIYAIGWYRQAPGKERELVAAITRRAGSTYYADSVKGRFTISRDNAKNRVYLLMTSLKPEDTAVYDCNATRGTATAYYYRWAGGYWGQGTQVTVSS")
"low polyreactivity"
>>> observed_result("QVQHVESGGGLVQAGGSLRLSCAASGRIFTFYTMGWYRQAPGKERELVAAINSGGSTYYADSVKGRFTISRDNAKNTVYLQMNSLIQEDTAVYYCNARVYPLWFRRGYDYWGQGTQVTVSS")
"high polyreactivity"
>>> observed_result("QVQLVESGGGLVQAGGSLRLSCAASGFIFTANAMGWYRQAPGKEMELVAAISRSGGRTYYADSVKGRFTISRDNAKNTVYLQMNSLKPEDTAVYYCAAPYRSYDWYDYWGQGTQVTVSS")
"high polyreactivity"
>>> observed_result("QVQLVESGGGLFQAGGSLRLSCAASGRTFHANAMGWYRQAPGKERELVARINWSGTSTYYADSVKGRFTISRDNAKNTVYLQMNSLKPEDTAVYYCAAGWIRQYSSLYDYWGQGTQVTVSS")
"high polyreactivity"
>>> observed_result("QVQLVESGGGLVQAGGSLRLSCAASGFTFYKYTMGWYRQAPGKERELVAAISARGGSTYYADSVKGRFTISRDNAKNTVYLQMNSLKPEDTSVYYCAADFWRTYGLGYDYWGQGTQVTVSS")
"high polyreactivity"
>>> observed_result("QVQLVESGGGLVQAGGSLRLSCAASGRIFTLYDMGWYIQAPGKERELVAAISNSAGSTYYADSVKGRFTISRDNAKNTVYLQMNSLKPEDTAVYYCAAELWSWWGSRDYWGQGTQVTVSS")
"high polyreactivity"
>>> observed_result("QVQLVESGGGLVQAGGSLRLSCAASGRTFRVYTMGWYRQAPGKERELVAVISGRGGSTSYADSVKGRFTISRDNAKNTVDLQMNSLKPEDTAVYYCAARGRAHWHYDYWGQGTQVTVSS")
"high polyreactivity"
>>> observed_result("QVQLVESGGGLVQAGGSLRLSCAASGLTFVYYDMGWYRQAPGKERELVADITDGSSTNYADSVKGRFTISRDNAKNTVYLQMYSLKREDTAVYYCAVDAVFQGSLGDYEYDYWGQGTQVTVSS")
"low polyreactivity"

Task item: Fill in: polyreactivity (PSR sort gate) of QVQLVESGGGLVQAGGSLRLSCPASGNIFWWNARGWYRQAPGKERELVAAITSDSTTYYADSVKGRFTISRDNAKNTVYLQMNSLKPEDTAVYYCAAYSYGGQGVDYGYWGQGTQVTVSS is ___
Reply: low polyreactivity

* * *

- test-description: yeast display, Sf9 membrane polyspecificity reagent, FACS + sequencing; frameworks hold sequencing errors
recorded-metric: polyreactivity (PSR sort gate)

>>> observed_result("QDQLVESGGGLVQAGGSLRLSCAASGSTFKRYAMGWYSQAPGKVRELVAAISRRGGSTYYADSVKGRFTISRDNAKNTVYLQMNSLKPEDTAVYYCAARIASHHYYYWGQGTQVTVSS")
"high polyreactivity"
>>> observed_result("QVQLVESVGGLVQAGGSLRLSCAASGSIFRLYALGWSRQAPGKERELVAAIRYSTGRTYSADSVKGRFTISRDNAKNTVYLQMNSLKPEDTAVYYCNARSWYIRGSQEYYYWGQGTQVTVSS")
"high polyreactivity"
>>> observed_result("QDQLVESGGGLVQAGGSHRLTCAASGFIFAYYAMGWYRQAPGKERELVAAISRSGARTYYADSVKGRFTISRDNAKNTVYLQMKSLKPEDTAVFYCSARIIVDVVGTKYYYWGQGTQVTVSS")
"high polyreactivity"
>>> observed_result("QVQLVESGGGLVQAGGSLRLSCAASGSIFRYYAMGWYRQEPGKERELVAAISWDGGTTYYADSVKGRFTISRDNAKNTVYLQMNSLKPEDTGVYYCNVEFPLSSYGYDYWGQGTQVTVSS")
"low polyreactivity"

Task item: Consider the sequence QVQRVDSGGGLVQAGGSLRLSCAASGSIFEWYDMVWYRQAPGTERELVAAITTGGITNYSDSVKARFTISRDNAKNTVYLQMNSLKPEDTAVYYCNADFTVEFDYWGQGTQVTVSS and give its measured polyreactivity (PSR sort gate).
Reply: low polyreactivity

Task item: And the next one, QVHLVESGGGLVQAGGSLRLSCDASGSIFSVNVMGWYRQQPGKERELVAAITSGGSTHYADSVKGRFTISRDNAKNTVYLQMNSLKPEDTAVYDCAARVWYYDYWGQGTQVTVSS ?
Reply: high polyreactivity

Task item: Same read-out for QVQLVESGGGLVQAGGSLRLSCAASGSTFSGYAMGWYRLAPGKERELVASISSGGRTTYADSVKGRFTISRDNAKYTVYLQMNSLKPEDTAVSYCANRIRPGYARLYSWGQGTQVTVSS ?
Reply: high polyreactivity

Task item: Next: QVHLVESGGVLVQAGGSLRLSCAASGRIFSYYAMGWYRQAPGKEREMVAAISWTVGSTYYADSVKGRFTISRDNAINTVYLQMNSLYPEDTAVFYCAAAYGWSWYRYDYWGQGTQVTVSS
Reply: high polyreactivity

Task item: Same for QVQLVESGGGLVQAGGSLRLSCAASGSTFYYYAMGWYRQAPGTAREWVAAISYSGGRTYYADSVKGRFTISRDHAKNTDDIQMNSLKPEYTAVYYCATGQPILALRYAYGYWGQATQVTVSS
Reply: low polyreactivity

Task item: Would you mind doing QVQLVESGGGLDQAGGSLRLTWAASGSIFKFYAMGWYRQAPGKERDMVAAISQSGGRTYYADSVKGRFTISRDNAKNSVYLQMNSLKPEDTAVYYCAKSVFPVYGRPSNLWFNYWGQGTQVTVSS as well?
Reply: high polyreactivity

Task item: Then QVQLVESGGGLVQAGGSLRLSCAASGSTFDTYAMGWYRQAPGKERELVAAISRSGTSTYYADSVKGRFTISRDNAKNTVYLQMISLKPEDTAVYYCDKDAGLQKYHHDYWGQGTQVTVSS ?
Reply: low polyreactivity

* * *

- test-description: yeast display, Sf9 membrane polyspecificity reagent, FACS + sequencing; frameworks hold sequencing errors
recorded-metric: polyreactivity (PSR sort gate)

Worked cases, polyreactivity (PSR sort gate) given:
>>> observed_result("QVQLVESGGGLVQAGGSLPLSCAASGITLYGYAMGWNRQAPGNERELVPAISRSGSSTYYADSVKGRFTISRDNAKNTVYLQMNILKPEDTAVYYCNVYSGRYWESHKFDSWGQGTQVTVSS")
"high polyreactivity"
>>> observed_result("QVQLVESGGGLVQAGGSLRLSCAASGGISLRYAMGWYRQAPGKERELVAVIDFSGASTYYADSVKGRFTISRDNAKNTVYLQMNSLKPEDTAVYYCAADSHYQDDFRIQYDYWGQGTQVTVSS")
"low polyreactivity"
>>> observed_result("QVQLVDSGGALVQAGGSLRLSCAASGSTFAYYAMGWYRQAPGKERELVAAITASATNTYYADSVKGRFTISRDNAKNTVYLQMNSLKPEDTAVYYCAADDVDVEHQASWDDYDSWGQGTQVTVSS")
"low polyreactivity"
>>> observed_result("QVQLVESGGGLVQAGGSLRLSCAASGFIFAGTAMGWYRQAPGKEWELVAAITRSGTNTYYADSVKGRFTISRDHAKNTVFLQMNSLKPEDTAVYYCNATVRYRYPYGYWGQGTQVTVSS")
"high polyreactivity"
>>> observed_result("QVQLVESGGGLVQAGGSLRLSCAASGSIFPYYAMGWYRQAPGKERELVATISNSGGSTYYADSVKGRFTISRDNAKNTVYLQMNSLKPEDTAVYYCAADRGSYPYTGDYWGQGTQVNVSS")
"low polyreactivity"

Task item: What measured polyreactivity (PSR sort gate) goes with QVQLVESGGGLVQAGGSLRLSCAASGSIFAQYAMGWYRQAPGKERELVAAISRTGGGTYYADSVKGRFTISRDNAKNTVYLQMNSLKPEDTAVYYCAAVPGLFYLPYDYWGQGTQVTVSS ?
Reply: low polyreactivity

Task item: Do the same for QVQLVESGGGLVQAGGSLRLSCAASVSLSGYYAMGWYRTGPGKERELVASIRYTGALTYYADTVKGRFTISRDNAKNTVYLQMNSLKPEDTAGYYCAADVKRDRVWGGDYWGQGTQVTVSS please
Reply: low polyreactivity

Task item: Next sequence: QVQLQESGGGLVQACGSQRLSCAASGSISEGQDKGWYRRAPGKEREFVAGIAPGATTYYADSEKGRFTISRDNAKNTVYLQMNSLKPEDTAVYFCAARSVTETDHDYWGQGTQVTVSS
Reply: low polyreactivity

Task item: Let us now turn to QVQLVESGGGLVQAGVSLRLSCAASGSIFSYNAMGWYRQAPGKERELVAAINNGGSTYYADSVKGRFTISRDNAKNTVYLQMNSLKPEDTAVYYCAAQSGHYAEYNYWGQGTQVTVSS
Reply: high polyreactivity

Task item: Can you check QVQLVESGGGLVQAGGSLRLSCAASGFTFTDYAMGWYRQAPGKERELVAAIYGIGGSTYYADSVKGRFTISRDNAKITVYLKMKSLKPEDTAVYYWNAYRSFTGYDYDYWGQGTQVTVSS next?
Reply: high polyreactivity

Task item: Ok, now QVQLVESGGGLVQAGGSLRLSCAASGRIFKRYDMGWYRQAPWKERELVAAITGTGGSTYYADSVKGRFTISRDNAKNTVYLQMNSLKPEDTAVYYCAARLYNTYSGFAFGYWGQGTQVTVSS
Reply: high polyreactivity
